# Test system: CYP2B6
# experiment: in vitro
# measurementSetup: Sprague-Dawley, rat, microsomes, pH 7.4
# Method: (OHBUP-[D6]) and 5 nM 4′-hydroxydiclofenac-[^13C6] (OHDIC-[^13C6]) as internal standards (ISs). […] standard addition experiments. Each group included four concentration levels. For the PK […] The probe compounds, viz. […] chosen after incubating all the recruited substrates. In order to assure the linear relationship […] The incubation system was also optimized in terms of substrate concentrations. The substrates concentrations of […]
measuredParameter: pIC50
Give bare numbers, as −log10 of the molar value.

[ask] Consider the molecule shown here: O=c1c(O)c(-c2ccc(O)c(O)c2)oc2cc(O)cc(O)c12 What is its recorded pIC50?
[reply] 4.16
